Tested on: human cytomegalovirus (HCMV) AD169 strain
Assay: Antiviral activity against HCMV in MRC5 fibroblasts (virus yield, fluorescent focus assay)
Format: cell-based
Conditions: Human betaherpesvirus 5, HCMV AD169, 1 infectious unit/cell, treated 2 h after infection, virus in medium at 96 h
Checkbox rule: IC50 lower than 10 µM = true (1); IC50 not lower than 10 µM = false (0).

These solved cases illustrate the format of a correct answer.
COc1cccc(CN2C(=O)c3cccnc3N(C)C2C(F)C(C)c2cnc3ccccc3c2)c1 (centres unmarked) : true (1)
CC(c1ccncc1)c1cnc(N2CCc3ccccc3C2)s1 (centres unmarked) : false (0)
CCOc1cc(C(C)C)n(C(CNc2cnc3ccccc3c2)C(C)c2cccnc2C)n1 (centres unmarked) : true (1)
COc1ccccc1C(C)C(F)CNc1cnc2ccccc2c1 (centres unmarked) : true (1)
CC(c1ccnn1C)C(CN1CCN(C)CC1)Oc1ccc(C#N)cn1 (centres unmarked) : false (0)
COc1ccc(C(C)C(CN2CCc3ccccc3C2)n2nc(-c3cccnc3)cc2N)cc1 (centres unmarked) : false (0)

Below 10 µM on IC50? Entry CC(c1ccccc1F)C(O)CNc1ccc(O)nc1 (centres unmarked)
false (0)

Subsequent entry: Cc1nn(C2CN(CCn3ccnc3)C(=O)C2c2ccccc2)c(C)c1C (centres unmarked)
false (0)

Subsequent entry: COc1ccccc1C1C(=O)N(C(C)C)CC1O (centres unmarked)
false (0)

Subsequent entry: CC(c1cnc2ccccc2c1)C(F)CNc1cnc2ccccc2c1 (centres unmarked)
true (1)

Subsequent entry: CC(c1ccc(F)cc1)C(O)Cn1cc(-c2cc(Cl)cnc2N)nn1 (centres unmarked)
false (0)
